Target: T1, Human IL13Rα2 (human, UniProt Q14627 27-343, limits assumed)
T1 construct: also called human recombinant IL13Rα2; Human IL13Ra2
T1 sequence (looked up): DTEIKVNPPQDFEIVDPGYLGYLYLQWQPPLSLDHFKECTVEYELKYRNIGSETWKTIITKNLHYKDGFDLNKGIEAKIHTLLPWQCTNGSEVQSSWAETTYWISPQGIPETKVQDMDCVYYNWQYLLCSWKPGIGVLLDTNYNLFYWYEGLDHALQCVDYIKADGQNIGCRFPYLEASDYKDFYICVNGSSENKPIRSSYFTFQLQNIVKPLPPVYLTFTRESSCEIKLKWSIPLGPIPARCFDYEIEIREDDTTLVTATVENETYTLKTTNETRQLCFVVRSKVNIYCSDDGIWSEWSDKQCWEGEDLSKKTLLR
Assay: SPR Biacore 8K affinity ranking, antibody supernatant Fc-captured, 100 nM IL13Rα2 analyte
property_label: pKd
Quick note: pKd means taking -log10 of the concentration in moles per liter.

Humanized antibody VH4 + VL2 (antibody, human IgG1, kappa, V domains shown) VH: QVQLVQSGAEVKKPGASVKVSCKASGYTFSNYLMNWVRQATGQGLEWMGRIDPYDGDIDYNQNFKDRVTITRNTSISTAYMELSSLRSEDTAVYYCARGYGTAYGVDYWGQGTLVTVSS VL: DIQMTQSPSSLSASVGDRVTITCRASESVDNYGISFMNWYQQKPGKAPKLLIYAASRQGSGVPSRFSGSGSGTDFTLTISSLQPEDFATYYCQQSKEVPWTFGGGTKLEIKR ... 9.22

Please turn your attention to the following entry.
Item under review: Humanized antibody VH3 + VL2 (antibody, human IgG1, kappa, V domains shown) VH: QVQLVQSGAEVKKPGASVKVSCKASGYTFSNYLMNWVRQAPGQGLEWMGRIDPYDGDIDYNQNFKDRVTMTRDTSTSTVYMELSSLRSEDTAVYYCARGYGTAYGVDYWGQGTLVTVSS VL: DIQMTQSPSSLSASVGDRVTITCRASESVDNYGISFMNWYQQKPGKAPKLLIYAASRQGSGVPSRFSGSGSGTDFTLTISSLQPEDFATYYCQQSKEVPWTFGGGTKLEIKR . Reported pKd?
9.16
